Values from patent US20260070922A1

Provide the recorded Kb for the entries that follow.
assayed system: Orexin type 1 (OX1R) receptor (Homo sapiens)
Construct: expressed in transfected cells; host or cells: CHO cells (G418 selection)
test details: In vitro orexin antagonism assay: intracellular calcium measurement (FLIPR), orexin-A 3 nM as agonist
Assay type: cell-based
measurement context: second value of IC50/Kb cell
Answers are plain numbers, in nM.

Here is how some compounds turned out for Kb.
1) [2H]C1([2H])CC[C@@]([2H])(COc2ccc(C(F)(F)F)cn2)N1C(=O)c1nn2c(c1-c1ccccc1)COCC2 [Example 171]	2
2) O=C(c1c(-c2ccccc2)nn2ccccc12)N1CCC[C@H]1Cn1ccc(-c2ccc(F)cc2)n1 [Example 59]	0.7
3) O=C(c1nn2ccccc2c1-c1ccccc1)N1CCC[C@H]1Cn1ccc(-c2ccc(F)cn2)n1 [Example 111]	3

// moving on: another record for Kb
GET /values?readout=Kb&item= O=C(c1nc2ccccn2c1-c1ccccc1)N1CCC[C@H]1Cn1cc(-c2ccc(F)cn2)cn1 [Example 122]
2

====

assayed system: human k-opioid receptor (kOR) (Homo sapiens)
Construct: expressed in transfected cells; host or cells: RBL cells (membrane homogenates)
test details: Human k-opioid (KOP) receptor (agonist radioligand [3H]U-69593) binding assay, transfected RBL cell membranes
measurement context: read-out: KOR % Inh. @ 1 uM
Experimental: Human k-Opioid (KOP) Receptor (Agonist Radioligand) Binding Assay Purpose: Evaluation of the affinity of compounds for the human k-opioid receptor in transfected RBL cells determined in a radioligand binding assay. Experimental protocol: Cell membrane homogenates (about 80 μg protein) are incubated for 60 min at 22° C. with 0.5 nM [3H]U-69593 in the absence or presence of the test compound in a buffer containing 50 mM Tris-HCl (pH 7.4), 10 mM MgCl2 and 1 mM EDTA. […]
Provide the recorded inhibition at 1 µM for the entries that follow.
Answers are plain numbers, in %.

Here is how some compounds turned out for inhibition at 1 µM.
1) O=C(c1nn2cccnc2c1-c1ccccc1)N1CCC[C@H]1Cn1ccc(-c2ccccc2)n1 [Example 136]	26
2) O=C(c1c(-c2ccccc2)nn2ccccc12)N1CCC[C@H]1COc1ccc(C(F)(F)F)cn1 [Example 20]	33
3) O=C(c1nc2ccccn2c1-c1ccccc1)N1CCC[C@H]1Cn1cc(-c2ccccn2)cn1 [Example 118]	35
4) O=C(c1nn2c(c1-c1ccccc1)OCCC2)N1CCC[C@H]1Cn1ccc(-c2ccccn2)n1 [Example 135]	22
5) O=C(c1nc2ccccn2c1-c1ccccc1)N1[C@H](Cn2ccc(-c3ccc(F)cn3)n2)C[C@@H]2C[C@@H]21 [Example 126]	10

Go through the items and report each one's inhibition at 1 µM.
1. O=C(c1c(-c2ccccc2F)nn2ccccc12)N1CCC[C@H]1Cn1cc(-c2ccccn2)cn1 [Example 68]
2. C[C@@]1(Cn2ccc(-c3ccccn3)n2)CCCN1C(=O)c1nn2ccccc2c1-c1ccccc1 [Example 150]
3. O=C(c1c(-c2ccccc2F)nn2ccccc12)N1[C@H](Cn2ccc(-c3ccc(F)cn3)n2)C[C@@H]2C[C@@H]21 [Example 107]

1: 48; 2: 16; 3: 61

====

assayed system: Orexin type 1 (OX1R) receptor (Homo sapiens, UniProt O43613)
Sequence (O43613 whole entry): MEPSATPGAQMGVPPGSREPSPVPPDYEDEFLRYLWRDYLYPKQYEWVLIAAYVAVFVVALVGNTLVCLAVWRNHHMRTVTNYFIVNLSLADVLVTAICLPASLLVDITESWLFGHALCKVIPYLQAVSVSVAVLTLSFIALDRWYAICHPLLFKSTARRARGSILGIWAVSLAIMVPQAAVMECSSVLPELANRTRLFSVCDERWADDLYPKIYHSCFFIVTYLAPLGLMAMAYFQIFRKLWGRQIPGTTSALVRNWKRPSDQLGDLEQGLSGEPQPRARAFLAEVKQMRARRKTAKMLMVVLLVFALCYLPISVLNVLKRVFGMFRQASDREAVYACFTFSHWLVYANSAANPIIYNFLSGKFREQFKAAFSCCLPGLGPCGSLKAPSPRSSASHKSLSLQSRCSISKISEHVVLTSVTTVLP
test details: In vitro orexin antagonism assay: intracellular calcium measurement (FLIPR), orexin-A 3 nM as agonist
measurement context: first value of IC50/Kb cell
endpoint name: pIC50
Give bare numbers, as −log10 of the molar value.

1. O=C(c1c(-c2ccccn2)nn2ccccc12)N1CCC[C@H]1Cn1ccc(-c2ccccc2)n1 [Example 132]	8.40

Go through the items and report each one's pIC50.
1. O=C(c1c(-c2ccccc2)nn2ccccc12)N1[C@@H]2CC[C@@H](C2)[C@H]1COc1ccc(C(F)(F)F)cn1 [Example 88]
2. O=C(c1c(-c2ccccc2)nn2ccccc12)N1CCC[C@H]1Cn1ccc(-c2ccc(F)cc2)n1 [Example 59]
3. O=C(c1nn2ccccc2c1-c1ccccn1)N1CCC[C@H]1Cn1cc(-c2ccc(F)cn2)cn1 [Example 183]

1: 7.43; 2: 8.40; 3: 7.42

====

assayed system: human orexin-2 receptor (OX2R) (Homo sapiens)
Construct: expressed in transfected cells; host or cells: CHO cells (G418 selection)
Sequence (O43614 whole entry): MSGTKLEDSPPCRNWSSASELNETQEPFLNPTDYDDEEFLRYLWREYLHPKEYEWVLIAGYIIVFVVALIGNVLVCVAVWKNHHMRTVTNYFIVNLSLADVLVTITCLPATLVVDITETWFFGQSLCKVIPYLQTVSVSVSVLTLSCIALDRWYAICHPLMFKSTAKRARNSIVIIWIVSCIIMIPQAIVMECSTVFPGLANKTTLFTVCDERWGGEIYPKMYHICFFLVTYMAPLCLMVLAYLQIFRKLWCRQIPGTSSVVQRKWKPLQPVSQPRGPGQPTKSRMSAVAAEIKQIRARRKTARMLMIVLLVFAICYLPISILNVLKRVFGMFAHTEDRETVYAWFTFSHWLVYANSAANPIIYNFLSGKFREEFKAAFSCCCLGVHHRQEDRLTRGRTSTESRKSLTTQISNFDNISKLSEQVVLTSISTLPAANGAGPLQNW
test details: In vitro orexin antagonism assay: intracellular calcium measurement (FLIPR), orexin-A 3 nM as agonist
Format: cell-based
measurement context: read-out: OX2R, % Inh. @ 1 uM
endpoint name: inhibition at 1 µM
Give the figure together with its unit, number first.

Here is how some molecules turned out for inhibition at 1 µM.
1. O=C(c1c(-c2ccccc2)nc2ccc(F)cn12)N1CC[C@H]1Cn1ccc(-c2ccc(F)cc2)n1 [Example 101]	47%
2. O=C(c1c(-c2ccccc2)nn2cccnc12)N1CCC[C@H]1Cn1ccc(-c2ccccn2)n1 [Example 140]	59%
3. C[C@@]1(COc2cnc(C(F)(F)F)cn2)CCCN1C(=O)c1nn2c(c1-c1ccccc1)OCCC2 [Example 165]	6%
4. O=C(c1c(-c2ccccc2)nn2ccccc12)N1CCC[C@H]1CNc1ncc(F)cn1 [Example 23]	13.5%
5. O=C(c1c(-c2ccccc2F)nn2c1COCC2)N1CCC[C@H]1Cn1cc(-c2ccc(F)cn2)cn1 [Example 83]	39%

Go through the items and report each one's inhibition at 1 µM.
1. O=C(c1nn2cccnc2c1-c1ccccn1)N1CCC[C@H]1COc1ccc(C(F)(F)F)cn1 [Example 190]
2. O=C(c1c(-c2ccccc2)nn2c1COCC2)N1CCC[C@H]1Cn1ccc(-c2ccccn2)n1 [Example 76]
3. C[C@@]1(COc2cnc(C(F)(F)F)cn2)CCCN1C(=O)c1c(-c2ncccn2)nn2ccccc12 [Example 166]

["28%", "25%", "10%"]

Go through the items and report each one's inhibition at 1 µM.
1. O=C(c1c(-c2ccccc2)nc2ccc(F)cn12)N1CCC[C@H]1Cn1cc(-c2ccc(F)cn2)cn1 [Example 84]
2. O=C(c1nc2ccccn2c1-c1ccccc1)N1CCC[C@H]1Cn1ccc(-c2ccccn2)n1 [Example 119]
3. O=C(c1nn2c(c1-c1ccccn1)COCC2)N1CCC[C@H]1Cn1ccc(-c2ccccn2)n1 [Example 211]
4. O=C(c1c(-c2ccccc2)nc2ccc(F)cn12)N1CCC[C@H]1Cn1cc(-c2ccccc2)cn1 [Example 75]
5. C[C@@H]1CCCN(C(=O)c2c(-c3ccccc3)nc3ccccn23)[C@@H]1CNc1ccc(C(F)(F)F)cn1 [Example 8]
6. O=C(c1nn2c(c1-c1ccccn1)COCC2)N1CCC[C@H]1Cn1cc(-c2ccc(F)cn2)cn1 [Example 214]

1. 58%
2. 37%
3. 28%
4. 76%
5. 21.4%
6. 32%

Go through the items and report each one's inhibition at 1 µM.
1. O=C(c1c(-c2ccccc2)nc2cc(C(F)(F)F)ccn12)N1CCC[C@H]1Cn1ccc(-c2ccc(F)cn2)n1 [Example 94]
2. O=C(c1c(-c2ccccc2)nc2ccccn12)N1[C@@H]2CC[C@@H](C2)[C@H]1COc1ccc(C(F)(F)F)cn1 [Example 89]

76%
46%

Go through the items and report each one's inhibition at 1 µM.
1. O=C(c1c(-c2ccccc2)nc2cnccn12)N1CCC[C@H]1CNc1ccc(C(F)(F)F)cn1 [Example 36]
2. O=C(c1nn2ccccc2c1-c1ccccc1)N1CCC[C@H]1Cc1nc(-c2ccc(F)cn2)no1 [Example 117]
3. O=C(c1nn2cccnc2c1-c1ccccn1)N1CCC[C@H]1Cn1ccc(-c2ccc(F)cn2)n1 [Example 193]
4. O=C(c1nn2ccccc2c1-c1ccccc1)N1CCC[C@H]1CNc1ccc(C(F)(F)F)cn1 [Example 29]
5. O=C(c1c(-c2ccccc2F)nn2c1COCC2)N1[C@H](Cn2ccc(-c3ccc(F)cn3)n2)C[C@@H]2C[C@@H]21 [Example 108]

["14.7%", "69%", "71%", "84.1%", "17%"]

====

assayed system: human k-opioid receptor (kOR) (Homo sapiens, UniProt P41145)
Construct: expressed in transfected cells; host or cells: RBL cells (membrane homogenates)
Sequence (P41145 whole entry): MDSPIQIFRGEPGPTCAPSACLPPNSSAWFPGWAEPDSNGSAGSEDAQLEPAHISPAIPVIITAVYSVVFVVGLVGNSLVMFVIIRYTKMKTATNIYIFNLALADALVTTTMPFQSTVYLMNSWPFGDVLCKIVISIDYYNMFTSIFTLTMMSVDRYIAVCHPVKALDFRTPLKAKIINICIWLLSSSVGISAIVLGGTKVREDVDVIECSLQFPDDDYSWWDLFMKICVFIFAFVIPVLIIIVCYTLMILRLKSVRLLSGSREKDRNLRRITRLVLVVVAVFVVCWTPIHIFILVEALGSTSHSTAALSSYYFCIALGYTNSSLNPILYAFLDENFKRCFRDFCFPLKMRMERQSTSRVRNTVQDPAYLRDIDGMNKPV
test details: Human k-opioid (KOP) receptor (agonist radioligand [3H]U-69593) binding assay, transfected RBL cell membranes
measurement context: read-out: KOR % Inh. @ 1 uM
endpoint name: inhibition at 1 µM (%)
Numbers only, in %.

Here is how some compounds turned out for inhibition at 1 µM.
1. O=C(c1c(-c2ccccc2)nn2ccccc12)N1CCC[C@H]1CNc1ccc(C(F)(F)F)cn1	26
2. O=C(c1c(-c2ccccc2F)nn2ccccc12)N1CCC[C@H]1Cn1cc(-c2ccc(F)cn2)cn1	33
3. C[C@@H]1CCCN(C(=O)c2c(-c3ccccc3)nc3ccccn23)[C@@H]1CNc1ccc(C(F)(F)F)cn1	38
4. O=C(c1c(-c2ccccc2)nc2cc(C(F)(F)F)ccn12)N1CCC[C@H]1Cn1ccc(-c2ccc(F)cn2)n1	74
5. C[C@@]1(COc2ccc(C(F)(F)F)cn2)CCCN1C(=O)c1c(-c2ccccn2)nn2ccccc12	2

Go through the items and report each one's inhibition at 1 µM.
1. O=C(c1c(-c2ccccc2)nn2ccccc12)N1[C@@H]2CC[C@@H](C2)[C@H]1COc1ccc(C(F)(F)F)cn1
2. O=C(c1c(-c2ccccc2)nc2cc(F)ccn12)N1CCC[C@H]1Cn1ccc(-c2ccc(F)cc2)n1

[22, 59]
